Listed molecules paired with reported pIC50
system: IL-17 production by CD4 T cells; assay: Human Th17 assay (IL-17 production by CD4 T cells under Th17 differentiation conditions); type: cell-based; settings: IL-17 in supernatant after 3 days
Here pIC50 is given on a logarithmic scale as minus log10 of the concentration in mol/L.

For orientation, consider the following solved cases.
Cn1cncc1C(O)(c1ccc(Cl)cc1)c1ccc2nc(Cl)c(-c3ccccc3Cl)c(Cl)c2c1 (single isomer, unassigned) [Example 153b] = 5.80
COc1nc2c(C)cc(C(O)(c3ccc(C(F)(F)F)nc3)c3cncn3C)cc2c(Cl)c1-c1ccc(OC(F)(F)F)cc1 (single isomer, unassigned) [Example 183c] = 6.06
COc1nc2c(C)cc(C(O)(c3ccc(C(F)(F)F)nc3)c3cncn3C)cc2c(Cl)c1-c1cccc(F)c1 (single isomer, unassigned) [Example 177c] = 5.60
Cn1cncc1C(O)(c1ccc(Cl)cc1)c1ccc2nc(Cl)c(-c3ccccc3)c(Cl)c2c1 (single isomer, unassigned) [Example 119b] = 4.82
CC(=O)N1CCC(C(O)(c2ccc3nc(C(F)(F)F)c(-c4ccccc4)c(C(F)(F)F)c3c2)c2cncn2C)CC1 (single isomer, unassigned) [Example 181c] = 6.80

Query block: // Input: COc1nc2c(C)cc(C(O)(c3ccc(C(F)(F)F)nc3)c3cncn3C)cc2c(Cl)c1-c1cccc(F)c1 (single isomer, unassigned) [Example 177b] . Output its pIC50 only.
Result block: 6.70

Query block: // Input: Cn1cncc1C(O)(c1ccc(Cl)cc1)c1ccc2nc(Cl)c(-c3ccccc3Cl)c(Cl)c2c1 (single isomer, unassigned) [Example 153c] . Output its pIC50 only.
Result block: 6.60

Query block: // Input: CC(=O)N1CCC(C(O)(c2ccccc2)c2ccc3nc(C(F)(F)F)c(-c4ccccc4)c(C(F)(F)F)c3c2)CC1 (single isomer, unassigned) [Example 169c] . Output its pIC50 only.
Result block: 6.96

Query block: // Input: O=C(O)C(F)(F)F.OC(c1cccnc1)(c1cccc(Cl)c1)c1ccc2nc(C(F)(F)F)c(-c3ccccc3)c(C(F)(F)F)c2c1 (stereo not drawn) [Example 165] . Output its pIC50 only.
Result block: 7.01
